# Tested on: male Wistar rats
# Type: in vivo
# CONDITION_DESCRIPTION: 30 mg/kg oral

MOLECULE	Irwin at mg/kg dose
O=C(O)CN1CCC(=C2c3ccccc3COc3ccccc32)CC1 [Compound 71e]	clean
O=C(O)CCCN1CCC(=C2c3ccccc3COc3ccccc32)CC1 [Compound 70e]	clean
O=C(O)C1(CCN2CCC(=C3c4ccccc4COc4ccccc43)CC2)CC1 [Compound 70b]	clean

---

# EXPERIMENTAL_TARGET: hERG (Homo sapiens, UniProt Q12809)
# Sequence (Q12809 whole entry): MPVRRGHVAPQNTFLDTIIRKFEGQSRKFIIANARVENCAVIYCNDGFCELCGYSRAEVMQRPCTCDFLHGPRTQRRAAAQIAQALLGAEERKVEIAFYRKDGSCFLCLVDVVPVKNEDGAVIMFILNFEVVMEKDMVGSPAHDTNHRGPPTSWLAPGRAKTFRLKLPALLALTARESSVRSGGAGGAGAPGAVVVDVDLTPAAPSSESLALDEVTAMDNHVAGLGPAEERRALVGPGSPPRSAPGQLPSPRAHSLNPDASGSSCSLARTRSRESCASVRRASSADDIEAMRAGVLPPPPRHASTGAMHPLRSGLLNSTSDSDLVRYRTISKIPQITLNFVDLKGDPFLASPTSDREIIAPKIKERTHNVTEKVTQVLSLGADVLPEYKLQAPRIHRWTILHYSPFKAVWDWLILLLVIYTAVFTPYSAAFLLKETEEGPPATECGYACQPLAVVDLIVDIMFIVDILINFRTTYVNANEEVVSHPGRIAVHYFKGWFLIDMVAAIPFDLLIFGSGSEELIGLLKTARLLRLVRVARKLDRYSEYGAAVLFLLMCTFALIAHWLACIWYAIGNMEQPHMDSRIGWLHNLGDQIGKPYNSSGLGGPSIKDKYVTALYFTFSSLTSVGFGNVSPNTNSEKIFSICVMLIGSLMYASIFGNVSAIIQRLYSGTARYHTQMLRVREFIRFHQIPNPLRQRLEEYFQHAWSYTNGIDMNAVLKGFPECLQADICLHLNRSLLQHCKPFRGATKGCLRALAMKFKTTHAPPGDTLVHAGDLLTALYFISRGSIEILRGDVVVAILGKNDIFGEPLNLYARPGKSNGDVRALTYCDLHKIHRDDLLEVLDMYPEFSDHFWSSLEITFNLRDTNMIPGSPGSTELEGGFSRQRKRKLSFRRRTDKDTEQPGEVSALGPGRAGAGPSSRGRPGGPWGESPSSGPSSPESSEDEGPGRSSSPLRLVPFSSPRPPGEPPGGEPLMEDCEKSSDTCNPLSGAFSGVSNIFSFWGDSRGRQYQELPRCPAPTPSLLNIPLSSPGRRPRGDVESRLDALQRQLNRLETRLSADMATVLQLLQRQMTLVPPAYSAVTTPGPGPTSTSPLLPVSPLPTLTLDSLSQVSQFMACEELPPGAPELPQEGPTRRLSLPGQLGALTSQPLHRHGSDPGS
# CONDITION_DESCRIPTION: human, 10 µM, pH 7.4
Catalogue of hERG at micromolar (% blocking of the hERG channel) values
ASSAY_ENDPOINT: hERG at micromolar (% blocking of the hERG channel) (% @ 10)

COMPOUND	UNITS	MEASURED_NUMBER
COc1ccc2c(c1)COc1ccccc1C2=C1CCN(CC2(C(=O)O)CC2)CC1 [Compound 50b]	% @ 10	27.1
COc1ccc2c(c1)COc1ccccc1C2=C1CCN(CC(C)(C)C(=O)O)CC1 [Compound 50a]	% @ 10	9.7
COc1ccc2c(c1)COc1ccc(F)cc1C2=C1CCN(CC(C)(C)C(=O)O)CC1 [Compound 47a]	% @ 10	1
O=C(O)C1(CN2CCC(=C3c4ccc(Cl)cc4COc4ccccc43)CC2)CC1 [Compound 51b]	% @ 10	23
CC(C)(CCN1CCC(=C2c3ccc(F)cc3COc3ccccc32)CC1)C(=O)O [Compound 61a]	% @ 10	12.6
O=C(O)C1(CCN2CCC(=C3c4ccc(F)cc4COc4ccccc43)CC2)CC1 [Compound 61b]	% @ 10	85.9
CCC(CC)(CN1CCC(=C2c3ccc(F)cc3COc3ccccc32)CC1)C(=O)O [Compound 49c]	% @ 10	19.7

---

Catalogue of Ki values
# EXPERIMENTAL_TARGET: M2 muscarinic receptor (Homo sapiens)
# Sequence (P08172 whole entry): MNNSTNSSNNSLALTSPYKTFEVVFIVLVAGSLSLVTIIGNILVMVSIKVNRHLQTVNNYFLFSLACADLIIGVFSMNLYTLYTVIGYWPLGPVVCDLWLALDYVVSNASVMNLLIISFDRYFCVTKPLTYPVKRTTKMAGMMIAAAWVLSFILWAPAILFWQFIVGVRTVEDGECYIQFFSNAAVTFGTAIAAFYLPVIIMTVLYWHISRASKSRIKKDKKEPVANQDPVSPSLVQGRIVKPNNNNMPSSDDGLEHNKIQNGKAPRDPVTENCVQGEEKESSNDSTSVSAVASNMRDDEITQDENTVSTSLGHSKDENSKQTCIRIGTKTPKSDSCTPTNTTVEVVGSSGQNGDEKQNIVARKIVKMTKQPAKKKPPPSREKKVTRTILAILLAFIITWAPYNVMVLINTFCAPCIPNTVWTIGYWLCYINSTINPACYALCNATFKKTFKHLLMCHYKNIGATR
# EXPERIMENT_SUMMARY: Muscarinic M2 binding assay
# Parameters: purchased PerkinElmer, Inc., Wellesley, Mass; host or cells: CHO cells
# CONDITION_DESCRIPTION: read-out: Ki M2

MOLECULE	Ki
O=C(O)C1(CN2CCC(=C3c4ccc(F)cc4COc4ccccc43)CC2)CC1 [Compound 49b]	> 10 µM
O=C(O)C1(CN2CCC(=C3c4ccccc4COc4ccccc43)CC2)CC1 [Compound 69b]	> 10 µM
COc1ccc2c(c1)C(=C1CCN(CC(C)(C)C(=O)O)CC1)c1ccc(F)cc1CO2 [Compound 46a]	2.45 µM
COc1ccc2c(c1)COc1ccccc1C2=C1CCN(CCC(C)(C)C(=O)O)CC1 [Compound 62a]	> 10 µM
CCC(CC)(CN1CCC(=C2c3ccc(F)cc3COc3ccccc32)CC1)C(=O)O [Compound 49c]	> 10 µM
O=C(O)C1(CCN2CCC(=C3c4ccc(F)cc4COc4ccccc43)CC2)CC1 [Compound 61b]	3.09 µM
O=C(O)CCCN1CCC(=C2c3ccccc3COc3ccccc32)CC1 [Compound 70e]	> 10 µM
COc1ccc2c(c1)COc1ccccc1C2=C1CCN(CC(C)(C)C(=O)O)CC1 [Compound 50a]	> 10 µM
COc1ccc2c(c1)COc1ccccc1C2=C1CCN(CCC2(C(=O)O)CC2)CC1 [Compound 62b]	> 10 µM
CC(C)(CN1CCC(=C2c3ccc(Cl)cc3COc3ccccc32)CC1)C(=O)O [Compound 51a]	> 10 µM
CC(C)(CN1CCC(=C2c3ccc(F)cc3COc3ccccc32)CC1)C(=O)O [Compound 49a]	> 10 µM
O=C(O)C1(CN2CCC(=C3c4ccc(Cl)cc4COc4ccccc43)CC2)CC1 [Compound 51b]	> 10 µM
CC(C)(CCN1CCC(=C2c3ccc(F)cc3COc3ccccc32)CC1)C(=O)O [Compound 61a]	> 10 µM
COc1ccc2c(c1)C(=C1CCN(CCC3(C(=O)O)CC3)CC1)c1ccccc1CO2 [Compound 67b]	> 10 µM
COc1ccc2c(c1)COc1ccc(F)cc1C2=C1CCN(CC(C)(C)C(=O)O)CC1 [Compound 47a]	> 10 µM
O=C(O)C1(CCN2CCC(=C3c4ccc(Cl)cc4COc4ccccc43)CC2)CC1 [Compound 59b]	> 10 µM
O=C(O)CN1CCC(=C2c3ccccc3COc3ccccc32)CC1 [Compound 71e]	5.13 µM
COc1ccc2c(c1)COc1ccccc1C2=C1CCN(CC2(C(=O)O)CC2)CC1 [Compound 50b]	> 10 µM

The measurements presented in this section are drawn from patent US7326721B2.
